- test.summary: Encapsulation efficiency for siRNA of lipid (nanoparticle) formulations
- Assay type: physicochemical
- condition.context: Table 8: nanoparticles Ionizable compound/DOPE/DOPC/Cholesterol/DMPE-PEG 50/28/0/21/1, 50/28/0/20/2 or 26/21/21/31/1 mol %
measured.metric: EE* (%) Encapsulation efficiency for siRNA
The answer is to be given in %; state only the numeric part.

>  <smiles.record>
CCCCC/C=C\C/C=C\CCCCCCCCOC(=O)CC(CC(=O)OCCCCCCCC/C=C\C/C=C\CCCCC)NC(=O)OCCN(C)C

>  <result.value>
94

$$$$

Quick one: give measured EE* (%) Encapsulation efficiency for siRNA for CCCCC/C=C\C/C=C\CCCCCCCC(=O)OCCN(CCOC(=O)CCCCCCC/C=C\C/C=C\CCCCC)C(=O)CN1CCN(CCCO)CC1
90

Provide EE* (%) Encapsulation efficiency for siRNA value for the following compound: CCCCC/C=C\C/C=C\CCCCCCCCOC(=O)[C@H](CNC(=O)C[N+](C)(C)C)NC(=O)CCCCCCC/C=C\C/C=C\CCCCC
98

Let me know recorded EE* (%) Encapsulation efficiency for siRNA for CCCCCCCCCCCCCC(=O)OCCN(CCOC(=O)CCCCCCCCCCCCC)C(=O)CN1CC(CO)C1 , thanks.
95

* * *

- test.summary: pKa (Table 9, lipid formulations for siRNA)
- Type: physicochemical
- condition.context: only or first value of the cell
Recorded pKa for the following compounds
Give the figure by itself; no unit, no explanation.

Give pKa for CCCC/C=C\C/C=C\CCCCCCCCOC(=O)CC(CC(=O)OCCCCCCCC/C=C\C/C=C\CCCCC)NC(=O)CN(C)C (stereo not drawn)
6.9

Output measured pKa for this item: CCCCC/C=C\C/C=C\CCCCCCCC(=O)OCCN(CCOC(=O)CCCCCCC/C=C\C/C=C\CCCCC)C(=O)OCCN(C)C
7.6

* * *

- test.summary: pKa (Table 9, lipid formulations for siRNA)
- Type: physicochemical
- condition.context: only or first value of the cell
Lab note: anything with pKa at or over 7 counts as Yes; the rest go in No.

Below are worked cases with known answers.
>  <smiles.record>
CCCCC/C=C\C/C=C\CCCCCCCC(=O)OCCN(CCCCN(C)C)C(=O)CCCCCCC/C=C\C/C=C\CCCCC

>  <assigned.class>
Yes

$$$$
>  <smiles.record>
CCCCCCCCCCCCCC(=O)OCCN(CCOC(=O)CCCCCCCCCCCCC)C(=O)CN1CC(CO)C1

>  <assigned.class>
Yes

$$$$
>  <smiles.record>
CCCCC/C=C\C/C=C\CCCCCCCC(=O)OCCN(CCOC(=O)CCCCCCC/C=C\C/C=C\CCCCC)C(=O)CN1C[C@@H](O)[C@H](O)C1

>  <assigned.class>
No

$$$$
>  <smiles.record>
CCCCC/C=C\C/C=C\CCCCCCCC(=O)OCCN(CCCN(C)C)C(=O)CCCCCCC/C=C\C/C=C\CCCCC

>  <assigned.class>
Yes

$$$$

Tell me whether pKa is at least 7 here: CCCCCCCCCCCCCC(=O)OCCN(CCOC(=O)CCCCCCCCCCCCC)C(=O)CCCC(=O)O
No

Assess whether reported pKa for CCCCC/C=C\C/C=C\CCCCCCCCOC(=O)CC(CC(=O)OCCCCCCCC/C=C\C/C=C\CCCCC)NC(=O)SCCN(C)C sits at 7 or higher.
No
